Target: norepinephrine transporter (Rattus norvegicus)
Sequence (Q9WTR4 1-597): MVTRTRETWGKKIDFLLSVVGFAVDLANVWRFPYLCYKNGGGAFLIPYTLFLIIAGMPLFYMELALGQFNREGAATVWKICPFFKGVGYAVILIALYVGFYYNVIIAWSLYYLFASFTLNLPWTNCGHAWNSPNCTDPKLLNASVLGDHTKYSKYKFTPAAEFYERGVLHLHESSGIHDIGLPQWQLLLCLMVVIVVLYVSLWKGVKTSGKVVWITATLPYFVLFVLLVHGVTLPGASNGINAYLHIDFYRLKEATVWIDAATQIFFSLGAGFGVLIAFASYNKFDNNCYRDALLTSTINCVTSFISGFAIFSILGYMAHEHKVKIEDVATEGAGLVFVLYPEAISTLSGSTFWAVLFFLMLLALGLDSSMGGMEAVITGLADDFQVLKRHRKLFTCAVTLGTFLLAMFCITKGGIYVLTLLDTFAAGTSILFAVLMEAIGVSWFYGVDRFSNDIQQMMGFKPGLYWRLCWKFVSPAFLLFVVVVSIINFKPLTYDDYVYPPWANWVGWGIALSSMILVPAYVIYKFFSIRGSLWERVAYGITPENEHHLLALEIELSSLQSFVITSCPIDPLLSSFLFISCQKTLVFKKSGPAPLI
Assay: Norepinephrine transporter binding (NET)
pIC50: −log10 of the molar value.
Kindly return MET if reported pIC50 is no lower than 6; return NOT MET if it is lower.

molecule	class_label
COC(=O)[C@@H]1CN(C)CC[C@@H]1c1ccc2ccccc2c1 (racemic)	NOT MET
C=Cc1ccc(C2CCN(C)CC2C(=O)OC)cc1 (single isomer, unassigned; (-))	NOT MET
COC(=O)C1CN(C)CCC1c1ccc(Br)cc1 (single isomer, unassigned; (+))	NOT MET
CN1CC[C@H](c2ccc(Cl)cc2)[C@@H](CCCO)C1	MET

Identify whether the reported pIC50 of the following molecule is 6 or greater: CC(=O)OC[C@@H]1CN(C)CC[C@@H]1c1ccc(Cl)cc1
MET

Can you handle COC(=O)[C@H]1CN(C)CC[C@@H]1c1ccc(Cl)cc1 next?
NOT MET

Can you handle COC(=O)C1CN(C)CCC1c1ccc2ccccc2c1 (racemic) next?
MET

====

Molecular target: dopamine transporter (Rattus norvegicus)
Construct: from tissue; P2 synaptosomes for uptake
Experiment: [3H]WIN 35,428 binding to rat striatal membranes / dopamine transporter binding (DAT)
Settings: rat striatal membranes; Table 1; read-out: IC50 (nM) [3H]WIN 35,428 binding
quantity: log10 of IC50 (log10 of the value in nM)
Scale: log10; quantity: IC50; unit before log: nM

Illustrative cases are given below, each with its answer.
compound	log10 of IC50
CCCC1CN(C)CCC1c1ccc(Cl)cc1 (single isomer, unassigned; (+))	1.24
CCC[C@@H]1CN(C)CC[C@@H]1c1ccc(Cl)cc1	0.48
COC(=O)[C@@H]1CN(C)CC[C@@H]1c1ccc(Cl)cc1	1.39
COC(=O)[C@H]1CN(C)CC[C@@H]1c1ccc(Cl)cc1	1.76

For the next question, use this compound.
Find log10 of IC50 (dopamine transporter (Rattus norvegicus)) for the entry CC(=O)OC[C@@H]1CN(C)CC[C@@H]1c1ccc(Cl)cc1
1.65

====

Molecular target: dopamine transporter (Rattus norvegicus, UniProt P23977)
Construct: from tissue; P2 synaptosomes for uptake
Sequence (P23977 whole entry): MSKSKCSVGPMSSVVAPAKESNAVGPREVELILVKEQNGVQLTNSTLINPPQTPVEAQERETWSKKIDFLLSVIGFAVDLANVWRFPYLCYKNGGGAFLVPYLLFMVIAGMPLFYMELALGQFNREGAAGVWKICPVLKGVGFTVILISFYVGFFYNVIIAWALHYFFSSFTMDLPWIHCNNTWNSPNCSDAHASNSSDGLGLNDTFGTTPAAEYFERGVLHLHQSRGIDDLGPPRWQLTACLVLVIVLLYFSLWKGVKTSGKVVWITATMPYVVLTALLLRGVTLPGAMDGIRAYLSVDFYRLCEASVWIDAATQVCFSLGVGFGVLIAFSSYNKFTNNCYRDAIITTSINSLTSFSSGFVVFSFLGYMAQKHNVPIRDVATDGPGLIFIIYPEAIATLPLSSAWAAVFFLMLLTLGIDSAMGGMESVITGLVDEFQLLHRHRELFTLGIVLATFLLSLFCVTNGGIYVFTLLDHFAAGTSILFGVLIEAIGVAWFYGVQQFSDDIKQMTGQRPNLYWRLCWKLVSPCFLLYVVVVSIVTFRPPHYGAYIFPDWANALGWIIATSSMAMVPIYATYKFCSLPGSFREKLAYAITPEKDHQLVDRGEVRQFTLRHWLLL
Experiment: [3H]WIN 35,428 binding to rat striatal membranes / dopamine transporter binding (DAT)
Settings: Table 2; read-out: DAT IC50 (nm)
quantity: pIC50
Scale: negative log10 of molar concentration, which is what pIC50 denotes.

compound	target_desc	reading
CCc1ccc(C2CCN(C)CC2C(=O)OC)cc1 (single isomer, unassigned; (-)) [Compound 81]	dopamine transporter (Rattus norvegicus, UniProt P23977)	5.77
CCC[C@@H]1CN(C)CC[C@@H]1c1ccc(Cl)cc1	dopamine transporter (Rattus norvegicus, UniProt P23977)	8.52
CN1CCC(c2ccc(Cl)cc2)C(CCCS)C1 (single isomer, unassigned; (+))	dopamine transporter (Rattus norvegicus, UniProt P23977)	7.55
COC(=O)C1CN(C)CCC1c1cccc2ccccc12 (racemic)	dopamine transporter (Rattus norvegicus, UniProt P23977)	6.76
COC(=O)[C@H]1CN(C)CC[C@@H]1c1ccc(Cl)cc1	dopamine transporter (Rattus norvegicus, UniProt P23977)	7.24

Could you tell me which pIC50 is on file for CCc1ccc(C2CCN(C)CC2C(=O)OC)cc1 (single isomer, unassigned; (+)) [Compound 67] ?
5.13

Can you handle Cc1noc(C2CN(C)CCC2c2ccc(Cl)cc2)n1 (single isomer, unassigned; (+)) next?
6.76

Can you handle COC(=O)[C@@H]1CN(C)CC[C@@H]1c1ccc(Cl)cc1 next?
7.60

Data provenance: patent US6440996B1
